Measured t1/2 SGF, listed per entry.
Conditions: simulated gi fluid, pH 1.2
*1 amine or outer side, *2 acyl side, *3 side chain or, on linkers, in order; H or OH if unused. Where a SMILES comes first, the peptide text is derived from it. Bridges are numbered along the chain shown (N, C = ends). X1 = O=C(CCC[*:2])[*:1]

Solved entries:
CC[C@H](C)[C@@H]1NC(=O)[C@H](Cc2ccc(O)cc2)NC(=O)[C@@H](N)CSSC[C@@H](C(=O)N2CCC[C@H]2C(=O)N[C@@H](CC(C)C)C(=O)NCC(N)=O)NC(=O)[C@H](CC(N)=O)NC(=O)[C@H](CCC(N)=O)NC1=O [Oxytocin, reference compound] | >24 h
CC[C@H](C)[C@@H]1NC(=O)[C@H](Cc2ccc(OC)cc2)NC(=O)CCCSC[C@@H](C(=O)N2CCC[C@H]2C(=O)N[C@@H](CC(C)C)C(=O)NCC(N)=O)NC(=O)[C@H](CC(N)=O)NC(=O)[C@H](CCC(N)=O)NC1=O [Carbetocin, reference compound] (Y(Me)IQNCPLG-NH2; linker N-5 via X1) | >24 h
CC(C)C[C@H](NC(=O)[C@@H]1CSSC[C@@H]2NC(=O)[C@H](CC(C)C)NC(=O)[C@H](CCC(=O)O)NC(=O)[C@@H](NC(=O)[C@H](CCC(=O)O)NC(=O)[C@H](CC(=O)O)NC(=O)[C@@H](N)CC(N)=O)CSSC[C@H](NC(=O)[C@H](C)NC(=O)[C@H](C(C)C)NC(=O)[C@H](CC(N)=O)NC(=O)[C@H](C(C)C)NC2=O)C(=O)N[C@@H]([C@@H](C)O)C(=O)NCC(=O)N1)C(=O)O [Plecanatide, reference compound] | >24 h

Could you now consider this next compound?
(Q) Please give measured t1/2 SGF of the following entry: CC(C)C[C@@H]1NC(=O)[C@H](CCC(=O)O)NC(=O)[C@@H](NC(=O)[C@H](CCC(=O)O)NC(=O)[C@H](CC(=O)O)NC(=O)[C@H](N)CC(N)=O)CSSC[C@@H]2NC(=O)[C@H](C)NC(=O)[C@H](C(C)C)NC(=O)[C@H](CC(N)=O)NC(=O)[C@H](C(C)C)NC(=O)[C@H](CSSC[C@@H](C(=O)N[C@H](CC(C)C)C(=O)O)NC(=O)CNC(=O)[C@H]([C@@H](C)O)NC2=O)NC1=O [Dolcanatide, reference compound]
(A) >24 h

* * *

Measured t1/2 SIF, listed per entry.
Conditions: pig, simulated gi fluid, pH 6.8
*1 amine or outer side, *2 acyl side, *3 side chain or, on linkers, in order; H or OH if unused. Where a SMILES comes first, the peptide text is derived from it. Bridges are numbered along the chain shown (N, C = ends). X1 = O=C(CCC[*:2])[*:1]
Enter your answer as a number in min; do not include the unit.

Solved entries:
C[C@@H]1NC(=O)[C@@H]2CCCN2C(=O)[C@H](CC(N)=O)NC(=O)[C@@H]2CSSC[C@H](N)C(=O)N[C@H]3CSSC[C@H](NC1=O)C(=O)N[C@@H]([C@@H](C)O)C(=O)NCC(=O)N[C@H](C(=O)N[C@@H](Cc1ccc(O)cc1)C(=O)O)CSSC[C@H](NC(=O)[C@H](Cc1ccc(O)cc1)NC(=O)[C@H](CCC(=O)O)NC3=O)C(=O)N2 [Linaclotide] (HELM PEPTIDE1{C.C.E.Y.C.C.N.P.A.C.T.G.C.Y}$PEPTIDE1,PEPTIDE1,1:R3-6:R3|PEPTIDE1,PEPTIDE1,2:R3-10:R3|PEPTIDE1,PEPTIDE1,5:R3-13:R3$$$V2.0) | 54
CC[C@H](C)[C@@H]1NC(=O)[C@H](Cc2ccc(O)cc2)NC(=O)[C@@H](N)CSSC[C@@H](C(=O)N2CCC[C@H]2C(=O)N[C@@H](CC(C)C)C(=O)NCC(N)=O)NC(=O)[C@H](CC(N)=O)NC(=O)[C@H](CCC(N)=O)NC1=O [Oxytocin, reference compound] | 8
CC[C@H](C)[C@@H]1NC(=O)[C@H](Cc2ccc(OC)cc2)NC(=O)CCCSC[C@@H](C(=O)N2CCC[C@H]2C(=O)N[C@@H](CC(C)C)C(=O)NCC(N)=O)NC(=O)[C@H](CC(N)=O)NC(=O)[C@H](CCC(N)=O)NC1=O [Carbetocin, reference compound] (Y(Me)IQNCPLG-NH2; linker N-5 via X1) | 13

Could you now consider this next molecule?
(Q) Please give measured t1/2 SIF of the following entry: CC[C@H](C)[C@@H]1NC(=O)[C@H](Cc2ccc(O)cc2)NC(=O)[C@@H](N)CSSC[C@@H](C(=O)N2CCC[C@H]2C(=O)N[C@@H](CC(C)C)C(=O)N(C)CC(N)=O)NC(=O)[C@H](CC(N)=O)NC(=O)[C@H](CCC(N)=O)NC1=O [(Nα-Me)G^9OT]
(A) 174
